biological target: SIC5 antibody; test: Photolabeling saturation of SIC5 (S1C5) antibody with [γ^32 P]-8-N3 ATP; conditions: S1C5, Example 10; read-out: apparent Kd
MEASURED ATTRIBUTE: pKd
Note on units: pKd is unitless, being -log10 of a concentration expressed in mol/L.

Req: # return pKd for [N-]=[N+]=Nc1nc2c(N)ncnc2n1[C@@H]1O[C@H](COP(=O)(O)OP(=O)(O)O[32P](=O)(O)O)[C@@H](O)[C@H]1O [[γ^32 P]-8-N3 ATP] , test system: SIC5 antibody
Resp: 4.12

----------
system: SIC5 antibody; test: Inhibition by ATP of [γ^32 P]-8-N3 ATP photoincorporation into SIC5 (S1C5) antibody; type: binding, murine; conditions: 200 μm [γ^32 P]-8-N3 ATP, ATP 0 to 700 μm, Example 2; read-out: ATP concentration for 50% inhibition of labeling
MEASURED ATTRIBUTE: IC50

Req: # return IC50 for Nc1ncnc2c1ncn2[C@@H]1O[C@H](COP(=O)(O)OP(=O)(O)OP(=O)(O)O)[C@@H](O)[C@H]1O , test system: SIC5 antibody
Resp: ~350 µM
